Where these numbers come from: patent US20240108607A1

- Tested on: U87MG cells
- Method summary: Radioactivity concentration of labeled compounds in tumor, U87MG subcutaneous transplantation
- Type: in vivo, mice (Balb/c AJcl-nu/nu)
- Study conditions: caudal vein; 111In 740 kBq, 64Cu and 90Y 500 kBq; 4 hours
Measured attribute: Radioactivity concentration in tumor After 4 hours (% ID/g)
Give the value in % ID/g but do not write % ID/g after it.

Suppose we examine the compound Cc1cc(OCCCC(=O)NCCNC(=O)C(CS(=O)(=O)O)NC(=O)CN2CCN(CC(=O)[O-])CCN(CC(=O)O)CCN(CC(=O)[O-])CC2)cc(C)c1S(=O)(=O)NC(CNC(=O)CCCCc1ccc2c(n1)NCCC2)C(=O)O.[64Cu+2] (stereo not shown) [[^64Cu]-(compound A)] ; what Radioactivity concentration in tumor After 4 hours value has been reported?
9.25

Tell me the measured Radioactivity concentration in tumor After 4 hours of Cc1cc(OCCCC(=O)NCCNC(=O)[C@H](CS(=O)(=O)O)NC(=O)CC[C@H](C(=O)O)N2CCN(CC(=O)[O-])CCN(CC(=O)[O-])CC2)cc(C)c1S(=O)(=O)N[C@@H](CNC(=O)CCCCc1ccc2c(n1)NCCC2)C(=O)O.[64Cu+2] [[^64Cu]-(compound B)] , please.
11.19

Value lookup for Radioactivity concentration in tumor After 4 hours; key = Cc1cc(OCCCC(=O)NCCNC(=O)C(CS(=O)(=O)O)NC(=O)CN2CCN(CC(=O)[O-])CCN(CC(=O)[O-])CCN(CC(=O)[O-])CC2)cc(C)c1S(=O)(=O)NC(CNC(=O)CCCCc1ccc2c(n1)NCCC2)C(=O)O.[111In+3] (stereo not shown) [[^111In]-(compound A)]
11.10

Sample Cc1cc(OCCCC(=O)NCCNC(=O)C(CS(=O)(=O)O)NC(=O)CN2CCN(CC(=O)[O-])CCN(CC(=O)[O-])CCN(CC(=O)[O-])CC2)cc(C)c1S(=O)(=O)NC(CNC(=O)CCCCc1ccc2c(n1)NCCC2)C(=O)O.[90Y+3] (stereo not shown) [[^90Y]-(compound A)] — what was its Radioactivity concentration in tumor After 4 hours?
12.52
